# target-entity: 5-lipoxygenase (Rattus norvegicus, UniProt P12527)
# Construct: host or cells: RBL-1 (rat basophilic leukemia)
# Sequence (P12527 whole entry): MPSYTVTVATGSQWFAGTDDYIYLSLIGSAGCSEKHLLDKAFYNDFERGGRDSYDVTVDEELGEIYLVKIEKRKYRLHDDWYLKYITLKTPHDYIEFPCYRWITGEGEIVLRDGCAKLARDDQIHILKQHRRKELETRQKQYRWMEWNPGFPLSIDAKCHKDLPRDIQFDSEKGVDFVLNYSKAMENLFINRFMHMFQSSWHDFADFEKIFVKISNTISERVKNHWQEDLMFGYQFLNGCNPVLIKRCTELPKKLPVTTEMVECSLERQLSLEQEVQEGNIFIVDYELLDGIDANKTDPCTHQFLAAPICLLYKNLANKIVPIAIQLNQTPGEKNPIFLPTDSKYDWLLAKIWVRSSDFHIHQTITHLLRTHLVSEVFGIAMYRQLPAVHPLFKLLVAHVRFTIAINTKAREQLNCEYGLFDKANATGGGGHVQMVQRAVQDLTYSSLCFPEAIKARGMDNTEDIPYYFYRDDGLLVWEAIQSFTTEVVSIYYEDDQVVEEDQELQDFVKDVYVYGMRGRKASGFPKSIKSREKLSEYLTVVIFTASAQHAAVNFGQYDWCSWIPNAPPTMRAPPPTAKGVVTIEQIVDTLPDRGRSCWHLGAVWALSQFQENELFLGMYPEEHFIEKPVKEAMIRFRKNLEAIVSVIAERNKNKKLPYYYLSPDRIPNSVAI
# method-notes: ARBL whole cell 5-lipoxygenase assay (inhibition of LTB4 formation in RBL-1 cells)
# Type: cell-based
# test-conditions: A23187 stimulated, Table 2 (formula II), read-out: ARBL: IC50 (50% inhibition of LTB4 formation)
endpoint-label: pIC50
// pIC50 is dimensionless: -log10 of concentration (M)

Q: Give 5-lipoxygenase (Rattus norvegicus, UniProt P12527) pIC50 for Cc1ccc(Cl)c(Nc2ccccc2/C=C2\SC(NC#N)=NC2=O)c1Cl [Example 8]
Ans: 5.83

Q: Observed pIC50 on 5-lipoxygenase (Rattus norvegicus, UniProt P12527) for CC(C)(C)c1cc(Nc2ccccc2/C=C2\SC(=S)NC2=O)cc(C(C)(C)C)c1O [Example 12] , please.
Ans: 5.83

Q: Query for 5-lipoxygenase (Rattus norvegicus, UniProt P12527): what pIC50 does the record show for Cc1ccc(Cl)c(Nc2ccccc2/C=C2\SC(=S)NC2=O)c1Cl [Example 1] ?
Ans: 6.09

###

# target-entity: 5-lipoxygenase (Rattus norvegicus, UniProt P12527)
# Construct: host or cells: RBL-1 (rat basophilic leukemia)
# method-notes: ARBL whole cell 5-lipoxygenase assay (inhibition of LTB4 formation in RBL-1 cells)
# Assay type: cell-based
# test-conditions: A23187 stimulated, Table 1 (formula I), read-out: ARBL: IC50 (50% inhibition of LTB4 formation)
endpoint-label: IC50 (nM)
Your answer should be a plain number; it is taken to be in nM.

Q: Can you share its IC50? I mean this molecule: Cc1ccc(Cl)c(Nc2ccccc2/C=C2\SC(=S)N(CC(=O)O)C2=O)c1Cl
Ans: 2180

###

What inhibition at 10 µM was measured for each of the following?
# target-entity: 5-lipoxygenase (Rattus norvegicus, UniProt P12527)
# Construct: host or cells: RBL-1 (rat basophilic leukemia)
# method-notes: ARBL whole cell 5-lipoxygenase assay (inhibition of LTB4 formation in RBL-1 cells)
# Assay type: cell-based
# test-conditions: read-out: ARBL: % inhibition of LTB4 at 10 μM, 10 μM, A23187 stimulated, Table 2 (formula II)
# number only, unit % dropped from output

Q: Form field - read-out: inhibition at 10 µM; system: 5-lipoxygenase (Rattus norvegicus, UniProt P12527); submitted item: Cc1ccc(Cl)c(Nc2ccccc2/C=C2\SC(=O)NC2=O)c1Cl [Example 7]
Ans: 55

Q: Could you share what inhibition at 10 µM was measured for CSC1=NC(=O)/C(=C/c2ccccc2Nc2c(Cl)ccc(C)c2Cl)S1 [Example 6] , tested on 5-lipoxygenase (Rattus norvegicus, UniProt P12527)?
Ans: 100

###

# target-entity: 5-lipoxygenase (Rattus norvegicus, UniProt P12527)
# Construct: host or cells: RBL-1 (rat basophilic leukemia)
# method-notes: ARBL whole cell 5-lipoxygenase assay (inhibition of LTB4 formation in RBL-1 cells)
# Type: cell-based
# test-conditions: read-out: ARBL: % inhibition of LTB4 at 10 μM, 10 μM, A23187 stimulated, Table 2 (formula II)
Exercise: for every item that follows, state its recorded inhibition at 10 µM.

Q: So what inhibition at 10 µM did O=C1NC(=S)S/C1=C\c1ccccc1Nc1cccc(C(F)(F)F)c1 get with 5-lipoxygenase (Rattus norvegicus, UniProt P12527)?
Ans: < 40%

Q: Give recorded inhibition at 10 µM with 5-lipoxygenase (Rattus norvegicus, UniProt P12527) for the following molecule: O=C1NC(=O)/C(=C/c2ccccc2Nc2cccc(C(F)(F)F)c2)S1
Ans: < 40%

Q: # get_value(readout= inhibition at 10 µM, system= 5-lipoxygenase (Rattus norvegicus, UniProt P12527)) for Cc1ccc(Cl)c(Nc2ccccc2/C=C2\SC(=N)NC2=O)c1Cl
Ans: < 40%
